Reported IC50 values for a set of compounds
Molecular target: human NaP2b (SLC34A2) (Homo sapiens, UniProt O95436)
Construct: host or cells: HEK293
Sequence (O95436 whole entry): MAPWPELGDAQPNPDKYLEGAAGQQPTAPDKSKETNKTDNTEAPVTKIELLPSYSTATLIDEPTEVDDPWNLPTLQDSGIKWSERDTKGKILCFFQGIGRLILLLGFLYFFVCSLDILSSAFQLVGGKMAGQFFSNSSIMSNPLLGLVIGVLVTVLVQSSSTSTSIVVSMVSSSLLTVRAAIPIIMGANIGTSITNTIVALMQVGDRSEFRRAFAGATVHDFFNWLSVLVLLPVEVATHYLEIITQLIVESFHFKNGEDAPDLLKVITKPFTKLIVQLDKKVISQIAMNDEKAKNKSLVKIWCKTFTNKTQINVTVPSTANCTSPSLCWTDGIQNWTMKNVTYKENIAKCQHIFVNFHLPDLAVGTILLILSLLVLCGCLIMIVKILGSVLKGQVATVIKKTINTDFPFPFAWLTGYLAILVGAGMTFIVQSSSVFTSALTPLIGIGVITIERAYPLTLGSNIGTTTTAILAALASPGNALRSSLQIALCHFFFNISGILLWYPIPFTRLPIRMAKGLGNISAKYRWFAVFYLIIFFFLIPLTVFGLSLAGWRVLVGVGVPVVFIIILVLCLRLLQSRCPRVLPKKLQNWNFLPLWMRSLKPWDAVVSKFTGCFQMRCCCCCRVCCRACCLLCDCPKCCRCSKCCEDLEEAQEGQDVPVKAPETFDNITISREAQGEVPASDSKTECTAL
Experiment: Inhibition of NaP2b-mediated Pi (33P) uptake in transfected HEK293 cells, human NaP2b
Type: cell-based
Details: read-out: pIC50 range for human NaP2b (converted)

Examples with answers:
test.smiles: CCN(CC)c1ccc(NC(=O)c2cccc(CCCOCCOCCOCCOCCOCCOCCOCCOCCOCCC(=O)O)c2)c(-c2cc(C(=O)NCc3cccc(C(F)(F)F)c3)ccn2)c1
IC50: 1 to 7.94 µM

test.smiles: CCN(CC)c1ccc(NC(=O)c2cccc(COCCOCCOCCOCCOCCOCCOC(=O)N(C)CCN3CCOCC3)c2)c(-c2cc(C(=O)NCc3cccc(C(F)(F)F)c3)ccn2)c1
IC50: < 1 µM

# value lookup — system human NaP2b (SLC34A2) (Homo sapiens, UniProt O95436), readout IC50, item `CN(CCN1CCC[C@H]1C(=O)OC(C)(C)C)C(=O)c1cccc(C(=O)Nc2ccc(N3CCCCC3)cc2-c2cc(C(=O)N[C@H]3CCCc4ccccc43)ccn2)c1` 1 to 7.94 µM

Next up: `CCN(CC)c1ccc(NC(=O)c2cccc(C(=O)N(C)CCN(CCOC)CCOCCOCCOCCC(=O)N(C)CCN3CCOCC3)c2)c(-c2cc(C(=O)NCc3cccc(C(F)(F)F)c3)ccn2)c1` 1 to 7.94 µM

Next up: `CCN(CC)c1ccc(NC(=O)c2cccc(COCCOCCOCCOCCOCCOCCOCCOCCOC)c2)c(-c2cc(C(=O)NCc3cccc(C(F)(F)F)c3)ccn2)c1` < 1 µM

Next up: `CCN(CC)c1ccc(NC(=O)c2cccc(CCCOCCOCCOCCOCCOCC(CO)(CO)CO)c2)c(-c2cc(C(=O)NCc3cccc(C(F)(F)F)c3)ccn2)c1` < 1 µM

Next up: `COCCOCCOCCOCCOCCOCCOCCN(C)C(=O)CCOCCOCCOCCOCCCc1cccc(C(=O)Nc2ccc(N3CCCCC3)cc2-c2cc(C(=O)NCc3cccc(C(F)(F)F)c3)ccn2)c1` 1 to 7.94 µM

Next up: `O=C(O)CCOCCOCCOCCNC(=O)c1cccc2c1ccn2Cc1cccc(C(=O)Nc2ccc(N3CCCCC3)cc2-c2cc(C(=O)NCc3cccc(C(F)(F)F)c3)ccn2)c1` < 1 µM

Next up: `O=C(O)c1cccc(COc2cccc(C(=O)Nc3ccc(N4CCCCC4)cc3-c3cc(C(=O)NCc4cccc(C(F)(F)F)c4)ccn3)c2)c1` 1 to 7.94 µM

Next up: `CCN(CC)c1ccc(NC(=O)c2cccc(CSc3cccc(CC(=O)O)c3)c2)c(-c2cc(C(=O)NCc3cccc(C(F)(F)F)c3)ccn2)c1` < 1 µM

Next up: `O=C(O)CCOCCOCCOCCOCCCc1cccc(C(=O)Nc2ccc(N3CCCCC3)cc2-c2cc(C(=O)NCc3cccc(C(F)(F)F)c3)ccn2)c1` < 1 µM

Next up: `CCCN(CCC)c1ccc(NC(=O)c2cccc(COCCOCCOCCOCCOCCOCCOCCOCCOC)c2)c(-c2cc(C(=O)NCc3cccc(C(F)(F)F)c3)ccn2)c1` < 1 µM
